Give measured IC50 for each item. Keep answers brief.
Biological target: recombinant human KIT tyrosine kinase protein (Homo sapiens (Human), UniProt P10721)
Sequence (P10721 546-976): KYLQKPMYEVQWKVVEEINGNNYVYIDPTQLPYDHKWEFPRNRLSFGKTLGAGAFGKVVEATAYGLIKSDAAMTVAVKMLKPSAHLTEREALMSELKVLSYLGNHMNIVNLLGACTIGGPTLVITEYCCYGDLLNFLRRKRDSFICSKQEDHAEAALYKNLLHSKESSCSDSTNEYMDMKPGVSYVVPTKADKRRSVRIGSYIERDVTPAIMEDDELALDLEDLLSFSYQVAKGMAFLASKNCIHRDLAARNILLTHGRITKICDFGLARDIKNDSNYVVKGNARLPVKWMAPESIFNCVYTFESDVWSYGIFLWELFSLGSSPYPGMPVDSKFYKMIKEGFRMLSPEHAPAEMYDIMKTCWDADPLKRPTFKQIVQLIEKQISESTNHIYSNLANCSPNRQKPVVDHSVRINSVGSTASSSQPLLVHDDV
Assay: KIT tyrosine kinase assay (ADP-Glo)
Type: biochemical
Settings: Table 98
// note: answer is a bare numeric in nM

-- ask May I ask what IC50 has been recorded for O=C(NCc1ccc(Oc2ccccc2F)nc1)c1ccc2[nH]c(=O)[nH]c2c1 ?
-- reply 29

-- ask Then this compound: CN(c1ccc(CNC(=O)c2ccc3c(c2)[nH]c(=O)n3C)cn1)C12CC(C(F)(F)F)(C1)C2
-- reply 31

-- ask What about C[C@H](NC(=O)c1ccc2c(c1)[nH]c(=O)n2C)c1ccc(N(C)c2ccc(F)cc2)nc1 ?
-- reply 40

-- ask Next record, please: CCN(CC)c1ccc(CNC(=O)c2ccc3c(c2)[nH]c(=O)n3C)cn1
-- reply 150

-- ask How about C[C@H](NC(=O)c1ccc2c(c1)[nH]c(=O)n2C)c1ccc(Oc2ccc(Cl)cc2F)nc1 ?
-- reply 33

-- ask Follow-up item: Cc1cc(CNC(=O)c2ccc3c(c2)[nH]c(=O)n3C)cnc1Oc1ccccc1
-- reply 140

-- ask Then what about the compound CN(c1ccc(CNC(=O)c2ccc3c(c2)[nH]c(=O)n3C)cn1)C12CC(C1)C2 ?
-- reply 61

-- ask Would you mind doing CC(C)N1CCc2cc(CNC(=O)c3ccc4c(c3)[nH]c(=O)n4C)cnc21 as well?
-- reply 22

---

Please go through the items and note down their pIC50.
Biological target: recombinant human KIT tyrosine kinase protein (Homo sapiens (Human), UniProt P10721)
Test: KIT tyrosine kinase assay (ADP-Glo)
Format: biochemical
Conditions: Table 98
Scale: negative log10 of molar concentration, which is what pIC50 denotes.

-- ask May I ask what pIC50 has been recorded for Cn1c(=O)[nH]c2cc(C(=O)NCc3ccc(Oc4ccc(F)cc4F)nc3)ccc21 ?
-- reply 7.68

-- ask Then what about the compound Cn1c(=O)[nH]c2cc(C(=O)NCc3ccc(Oc4ccc(F)c(F)c4)nc3)ccc21 ?
-- reply 6.51

-- ask And the next one, CN(Cc1ccccc1F)c1ccc(CNC(=O)c2ccc3c(c2)[nH]c(=O)n3C)cn1 ?
-- reply 7.60
